# reported Ki; entries follow
- TESTED_ON: hA2a receptors (Homo sapiens, UniProt P29274)
- Construct: purchased Receptor Biology, Inc. (USA); host or cells: HEK293 cells
- Sequence (P29274 whole entry): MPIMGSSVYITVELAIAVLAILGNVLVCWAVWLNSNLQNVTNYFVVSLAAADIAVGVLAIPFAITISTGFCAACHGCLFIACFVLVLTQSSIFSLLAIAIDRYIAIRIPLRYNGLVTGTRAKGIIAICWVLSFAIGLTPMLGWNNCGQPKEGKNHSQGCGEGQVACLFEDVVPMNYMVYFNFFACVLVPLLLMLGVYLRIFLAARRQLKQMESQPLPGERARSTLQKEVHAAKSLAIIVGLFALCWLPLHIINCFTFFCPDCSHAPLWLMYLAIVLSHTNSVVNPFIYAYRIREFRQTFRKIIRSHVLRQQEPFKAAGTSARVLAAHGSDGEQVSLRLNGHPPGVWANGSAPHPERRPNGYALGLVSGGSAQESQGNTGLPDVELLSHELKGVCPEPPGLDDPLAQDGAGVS
- ASSAY_EXPLANATION: Adenosine receptor subtype competition radioligand binding assay, hA2a
- PROTOCOL_CONDITIONS: membranes from hA2a receptors transfected to HEK293 cells, [3H]ZM241385 as radioligand, 90 min at 25° C.; read-out: A2a Antagonism (Ki nM)
QUANTITY_KIND: Ki

- MOLECULE: "CC(C)(CCC(=O)O)C(=O)Nc1nc(-c2cccc(F)c2)c(C#N)s1 [Example 68]"
  QUANTITY_KIND: "Ki"
  TEST_VALUE: "> 4000 nM"
- MOLECULE: "CC(C)(CCC(=O)O)C(=O)Nc1nc(-c2ccccc2)c(C#N)s1 [Example 2]"
  QUANTITY_KIND: "Ki"
  TEST_VALUE: "> 10000 nM"
- MOLECULE: "N#Cc1sc(NC(=O)[C@@H]2CCC[C@H](C(=O)O)C2)nc1-c1cc(F)cc(F)c1 (relative stereo) [Example 114]"
  QUANTITY_KIND: "Ki"
  TEST_VALUE: "> 10000 nM"
- MOLECULE: "N#Cc1sc(NC(=O)[C@@H]2CC[C@H](C(=O)O)C2)nc1-c1ccccc1F (relative stereo) [Example 50]"
  QUANTITY_KIND: "Ki"
  TEST_VALUE: "> 1300 nM"
- MOLECULE: "N#Cc1sc(NC(=O)[C@@H]2CCC[C@H](C(=O)O)C2)nc1-c1ccccc1 (relative stereo) [Example 8]"
  QUANTITY_KIND: "Ki"
  TEST_VALUE: "> 1200 nM"
